- TESTED_ON: Pyruvate dehydrogenase kinase (Rattus norvegicus) (UniProt Q63065+A6IPZ9+Q64536+O54937)
- ASSAY_METHOD_TEXT: Pyruvate dehydrogenase activity in vivo was measured following subcutaneous administration of 1.2 mmol/kg
- Format: functional, organism-based
RESULT_TYPE: PDH active/PDH total (%)

| MOLECULE | RESULT_TYPE | READOUT_NUMBER |
| --- | --- | --- |
| NC(C(=O)O)c1ccc(Cl)cc1 (stereo unspecified) | PDH active/PDH total | 43 |
| N[C@H](C(=O)O)c1ccc(O)cc1 (stereo in doubt; L-25) | PDH active/PDH total | 82 |
| COc1ccc(C(N)C(=O)O)cc1 (stereo in doubt; L-27) | PDH active/PDH total | 5 |
| CSc1ccc(C(=O)C(=O)O)cc1 | PDH active/PDH total | 69 |
| O=C(O)C(=O)c1cc(I)c(O)c(I)c1 | PDH active/PDH total | 12 |
| Cc1cc(C(=O)C(=O)O)ccc1O | PDH active/PDH total | 31 |
| CCSc1ccc(C(N)C(=O)O)cc1 (racemic) | PDH active/PDH total | 5 |
| C=CCc1cc(C(=O)C(=O)O)ccc1O | PDH active/PDH total | 11 |
| CSc1ccc(C(N)C(=O)O)cc1 (racemic) | PDH active/PDH total | 20 |
| COc1ccc(C(N)C(=O)O)cc1 (stereo in doubt; D-28) | PDH active/PDH total | 11 |
| CCSc1ccc(C(=O)C(=O)O)cc1 | PDH active/PDH total | 73 |
